Known melting point of a selection of compounds

>  <compound>
O=Cc1c(C2CC2)nc2ccccc2c1-c1ccc(F)cc1

>  <melting point>
152 °C

$$$$
>  <compound>
CSC1C(=O)Nc2c(C(=O)c3ccc(F)cc3)cccc21 (stereo not given)

>  <melting point>
165 to 168 °C

$$$$
>  <compound>
CNN(NC)C(=O)Nc1cccc2c1C(=O)c1c-2n[nH]c1-c1ccco1

>  <melting point>
202 °C

$$$$
>  <compound>
CC(C)c1nc2ccccc2c(-c2ccc(F)cc2)c1/C=C/I

>  <melting point>
129 to 131 °C

$$$$
>  <compound>
N#Cc1ccc2c(c1)NC(=O)C2c1ncnc2c1cnn2C1CCCCC1 (stereo not given)

>  <melting point>
> 300 °C

$$$$

Determine from records and report melting point for CC=NNC1=NCCc2ccccc21
152 to 154 °C

Read the entry C[C@H]1CN(c2cc3c(cc2F)c(=O)c(C(=O)O)cn3C2CC2)C[C@H]1N (relative stereo) and write its reported melting point.
268 to 270 °C

---

measured-endpoint: melting point

>  <compound>
CCc1nc2c(N)nc3cc(CCNS(C)(=O)=O)ccc3c2n1CC(C)(C)O

>  <melting point>
149 to 152 °C

$$$$
>  <compound>
Cn1ncc(CCC(=O)O)c1-c1ccc(Cl)cc1

>  <melting point>
138 to 140 °C

$$$$
>  <compound>
O=C(Nc1ccc(-c2cnc(-c3ccc(NC(=O)C45CC6CC(CC(C6)C4)C5)cc3)[nH]2)cc1)c1cccnc1

>  <melting point>
251 to 252 °C

$$$$

Retrieve melting point measured for COc1ccccc1-c1ccc2c(c1)CCCc1c-2nc2ccc(F)cc2c1C(=O)O and print it.
> 300 °C

Quickly give me recorded melting point for OC1(c2ccc3[nH]cc(CCN4CCCC4)c3c2)CCCCC1
66 to 78 °C

Retrieve melting point measured for CCOC(=O)c1c(-c2ccccc2)cn2ccccc12 and print it.
101 to 103 °C

---

measured-endpoint: melting point

>  <compound>
O=C1NCC=NN1c1cc(Cl)cc(Cl)c1

>  <melting point>
179 to 181 °C

$$$$
>  <compound>
NC(=O)CCCCC1(c2ccccc2)CC(O)=CC(=O)O1 (stereo unspecified)

>  <melting point>
173 to 174 °C

$$$$
>  <compound>
O=C(NNc1ccc([N+](=O)[O-])cc1)C(F)(F)F

>  <melting point>
115 to 117 °C

$$$$

Return melting point (reported value) for this compound: O=C(Nc1ccncc1)c1ccc(C2=NCCN2)cc1
> 250 °C

Supply reported melting point belonging to this compound: CCC(CC)n1ncn(-c2ccc(N3CCN([C@H](C)[C@@](O)(Cn4cncn4)c4ccc(F)cc4F)CC3)cc2)c1=O
110 to 113 °C

Note melting point for the compound shown: c1c[nH]c(-c2cnco2)c1
57 to 58 °C

---

Listed here are compounds together with their documented melting point.

A selection of reference data follows.
>  <compound>
O=[N+]([O-])c1ccc(F)c(-c2ccc(CO)cc2)c1

>  <melting point>
106 to 108 °C

$$$$
>  <compound>
CCc1ccc2c(c1)C1(CCN(C(=O)Nc3cnc(-c4ccccc4)cn3)CC1)OC2=O

>  <melting point>
176 to 178 °C

$$$$
>  <compound>
CC1CCN(c2cc(F)cc(C(=O)Nc3ccc(Oc4ccnc(N5CCOCC5)n4)c4ccccc34)c2)CC1

>  <melting point>
88 to 89 °C

$$$$
>  <compound>
Cc1cc(C)c2nsnc2c1[N+](=O)[O-]

>  <melting point>
105 to 106 °C

$$$$

Please examine the following record next.
Give a short answer stating reported melting point for CCC(n1cncn1)C(O)(Cn1cncn1)c1c(F)cccc1F (stereo not given) .
110 to 111 °C

---

Measured melting point, listed per entry for reference.

>  <compound>
CC(C)[C@H](NC(=O)CCC(=O)c1ccc(F)cc1)C(=O)O

>  <melting point>
103 to 105 °C

$$$$
>  <compound>
COC1=CC(=O)c2c(c(COc3cc(C=Cc4cc(OC)c(OC)c(OC)c4)ccc3OC)c(C)n2C)C1=O

>  <melting point>
192 to 194 °C

$$$$
>  <compound>
N#Cc1nn(-c2c(Cl)cc(C(F)(F)F)cc2Cl)c(N)c1-c1ccc(SC(F)(F)F)s1

>  <melting point>
162 to 163 °C

$$$$
>  <compound>
COc1cccc(OCCF)c1-c1ccc(C[C@H](NC(=O)c2c(Cl)cccc2Cl)C(=O)O)cc1

>  <melting point>
206 to 207 °C

$$$$
>  <compound>
Cc1ccc(CC2CCN(C(=O)C(=O)Nc3ccc4c(c3)CS(=O)(=O)N4)CC2)cc1

>  <melting point>
186 °C

$$$$

State its melting point for this compound: CN(C)C(=O)CCO[C@H]1CC[C@H](N(C)S(=O)(=O)c2ccc(C(F)(F)F)cc2)CC1
88 °C

Return value of melting point for input Clc1ccc2c(c1)N=C(N1CCN(CC3CC3)CC1)c1ccccc1N2 , no commentary.
148 to 151 °C

Identify the reported melting point for the following entry. O=Cc1cc2c3ccccc3c3ccccc3c2o1
84 to 85 °C

// Input: N#Cc1cccc(-c2nc(-c3cccnc3)no2)n1 . Output its melting point only.
201 to 203 °C

Give melting point for CN1CC(CCC#N)Oc2ncccc2C1=S (stereo unspecified)
155 to 156 °C

---

melting point overview

>  <compound>
O=C(O)CNC(=O)C(CS)Cc1ccc2c(c1)OCO2 (racemic)

>  <melting point>
94 °C

$$$$

Input CCCCOc1ccc(S(=O)(=O)C2(C(=O)O)CCN(CC)CC2)cc1 , output reported melting point.
162 °C

// fetch melting point given entry CCCC1(C)SC(=NOC(=O)NC)N=C1C (stereo unspecified)
66 to 69 °C

Fill in melting point for record Cn1ccnc1S(=O)(=O)CC(=O)C12CC3CC(CC(C3)C1)C2
124 to 125 °C

Give recorded melting point. S=c1nc(-c2ccc(Cl)c(Cl)c2)[nH]n1Cc1ccccc1
227 to 228 °C

Specify measured melting point for Clc1ncnc(Cl)c1C1OCCO1 .
108 to 110 °C

---

Below, each entry is listed with its recorded melting point.

Check out these entries, answers already filled in.
>  <molecule>
Nc1cc(=O)n(Cc2ccc(I)cc2)[nH]1

>  <melting point>
158 °C

$$$$
>  <molecule>
COc1ccc(CC(C(N)=O)S(C)(=O)=O)cc1C(=O)NCc1ccc(C(F)(F)F)cc1 (stereo not given)

>  <melting point>
219 to 220 °C

$$$$
>  <molecule>
CCNC(=S)NNC(=O)c1ccc(N)cc1

>  <melting point>
113 to 115 °C

$$$$
>  <molecule>
O=S(=O)(Nc1ccc2c(OCc3csc(-c4ccc(C(F)(F)F)cn4)n3)cccc2c1)C(F)(F)F

>  <melting point>
197 to 198 °C

$$$$
>  <molecule>
CCC(C)n1cc(Cl)nc(N2CCc3cc(OC)cc(C)c32)c1=O (stereo not given)

>  <melting point>
176 to 178 °C

$$$$
>  <molecule>
CCCN(CCC)C1Cc2c(C(C)=O)ccc3c2C(CN3)C1 (single isomer, unassigned; (+))

>  <melting point>
76 to 77 °C

$$$$
>  <molecule>
COc1cc2nc(N)nc(-c3ccc(Cl)cc3)c2cc1OC

>  <melting point>
248 to 250 °C

$$$$
>  <molecule>
CCC1CC2C3CCC4=CC(=O)CCC4(CSC)C3CCC2(C)C1=O (stereo not given)

>  <melting point>
83 °C

$$$$
>  <molecule>
O=C1N=C(N2CCOCC2)SC1=Cc1cc(-c2ccccc2)cc(-c2ccc(O)c(C34CC5CC(CC(C5)C3)C4)c2)c1

>  <melting point>
315 to 320 °C

$$$$

Note: attention shifts to another entry.
Determine its reported melting point: COc1ccnc(Cl)c1NS(=O)(=O)c1nc2cc(F)nc(OC)n2n1
187 to 188 °C

---

measured-endpoint: melting point

Below: 5 compounds and their reported melting point.
>  <compound>
Cc1nc(C)c(Cl)c(CNCc2ccc(Oc3ccc4ncc([N+](=O)[O-])n4n3)cn2)n1

>  <melting point>
183 to 184 °C

$$$$
>  <compound>
CCCOc1ccc(C(=O)C=CC(=O)O)cc1OC

>  <melting point>
136 °C

$$$$
>  <compound>
CCOC(=O)C1=Cc2cc3ccccc3n2CC1

>  <melting point>
77 to 79 °C

$$$$
>  <compound>
CCOC(=O)CCCn1c(Nc2cnc(OC)cc2C)nc2c(Cl)ccc(C(CC)CC)c21

>  <melting point>
140 to 142 °C

$$$$
>  <compound>
Cc1nc(NC(=O)NS(=O)(=O)c2ccccc2OC(Cl)=CCl)nc2c1CCO2

>  <melting point>
208 to 210 °C

$$$$

Please look at this compound and report its melting point: CC(=O)Oc1cc2c(c(OC(C)=O)c1)C1CCC3(C)C(=O)CCC3C1CC2 (stereo unspecified)
179 to 180 °C

Report melting point for CNC(=O)CC(O)(c1ccccc1)c1ccc2nc(N)n(S(=O)(=O)C(C)C)c2c1 (stereo unspecified)
92 to 95 °C

Look up and report measured melting point for this entry: Nc1ccc(I)cc1C=O
105 °C

Supply reported melting point belonging to this compound: Cc1cc(F)ccc1-c1nc(NCCO)nc2c1CCC(=O)N2c1ccccc1F
120 to 124 °C

Identify melting point associated with the compound CCCC(=O)c1ccc(N(CCO)CCO)cc1
72 to 75 °C

Answer with reported melting point of O=C(CCc1cnoc1-c1ccccc1)Nc1ccc(CP(=O)(O)O)cc1
162 to 164 °C

Complete the entry with melting point for CC(CBr)=C(C(=O)OCc1ccccc1)N1C(=O)C(Br)(Br)C1Br (stereo unspecified)
84 to 85 °C

// fetch melting point given entry O=C(O)c1cn(Cc2c(F)cccc2Cl)nn1
274 to 276 °C
